assay_remarks: Compounds in pre-precipitated (inactivated) plasma
Type: in vitro ADME, human
conditions: plasma pretreated with acetonitrile
parameter: degradation in inactivated plasma

* CN(C)CCc1c[nH]c2cccc(OP(=O)(O)O)c12 [Compound 8, 4-phosphoryloxy-N,N-dimethyltryptamine, reference compound] | fairly stable
* CCOC(=O)Oc1cccc2[nH]cc(CCN(C)C)c12.O=C(O)/C=C/C(=O)O | heavily degraded
* CN(C)CCc1c[nH]c2cccc(OC(=O)C3CC3)c12.O=C(O)/C=C/C(=O)O | fairly stable
* CN(C)CCc1c[nH]c2cccc(OCc3ccccc3)c12 | fairly stable

Now look at this one.
Q: Requested field: degradation in inactivated plasma. Item: CC(=O)Oc1cccc2[nH]cc(CCN(C)C)c12.O=C(O)/C=C/C(=O)O
Result: heavily degraded

---

assay_remarks: Thermal degradation of psilocin salts at 60 °C
conditions: half-life
parameter: half-life at 2 mg/mL freebase psilocin

The cases that follow already have their half-life at 2 mg/mL freebase psilocin on record.
• CN(C)CCc1c[nH]c2cccc(O)c12.O=C(O)C(F)(F)F = < 48 h
• CN(C)CCc1c[nH]c2cccc(O)c12.Cl = < 48 h

Now look at this one.
Q: Requested field: half-life at 2 mg/mL freebase psilocin. Item: CN(C)CCc1c[nH]c2cccc(O)c12.O=C(O)c1ccccc1
Result: < 48 h

---

solubility overview
assay_remarks: Solubility, screen method, phosphate buffer pH 7.4, 1% DMSO
Type: physicochemical
conditions: phosphate buffer with 1% DMSO; 100 mM phosphate buffer pH 7.4, 1% DMSO; assay range 0.1 to 100 μM
Expressed in µM, but write only the number.

The cases that follow already have their solubility on record.
• CCCC(=O)Oc1cccc2[nH]cc(CCN(C)C)c12.O=C(O)/C=C/C(=O)O = 87
• CCOC(=O)Oc1cccc2[nH]cc(CCN(C)C)c12.O=C(O)/C=C/C(=O)O = 88
• CCCCC(=O)Oc1cccc2[nH]cc(CCN(C)C)c12.O=C(O)/C=C/C(=O)O = 87

Now look at this one.
Q: Requested field: solubility. Item: CC(=O)Oc1cccc2[nH]cc(CCN(C)C)c12.O=C(O)/C=C/C(=O)O
Result: 77

---

half-life at 24 h, 5 mM overview
assay_remarks: Chemical stability in 1.0 M NaHCO3 and 1.0 M HCl
conditions: 1.0 M HCl
Expressed in h, but write only the number.

The cases that follow already have their half-life at 24 h, 5 mM on record.
- COC(=O)Oc1cccc2[nH]cc(CCN(C)C)c12.O=C(O)/C=C/C(=O)O: 150
- CCCCC(=O)Oc1cccc2[nH]cc(CCN(C)C)c12.O=C(O)/C=C/C(=O)O: 13.3
- CCCCCCCCCCC(=O)Oc1cccc2[nH]cc(CCN(C)C)c12.O=C(O)/C=C/C(=O)O: 21.7
- CN(C)CCc1c[nH]c2cccc(OC(=O)C3CC3)c12.O=C(O)/C=C/C(=O)O: 100
- CCCC(=O)Oc1cccc2[nH]cc(CCN(C)C)c12.O=C(O)/C=C/C(=O)O: 15
- CN(C)CCc1c[nH]c2cccc(OC(=O)OCc3ccccc3)c12.O=C(O)/C=C/C(=O)O.O=CO: 100

Now look at this one.
Q: Requested field: half-life at 24 h, 5 mM. Item: CC(=O)Oc1cccc2[nH]cc(CCN(C)C)c12.O=C(O)/C=C/C(=O)O
Result: 5
